Every entry's value here was drawn from paper PMC6650976.

Exercise: for every item that follows, state its recorded Dimer 50 kDa, %.
tgt: the molecule itself
procedureText: cross-linking; Mg2+-loaded proteins: 0.02% glutaric aldehyde, 16 h, 20 °C, protein 1 mg/mL, 20 mM Tricine-KOH pH 7.4, 50 mM KCl, 1 mM DTT, 1 mM MgCl2, 1 mM EGTA; SDS-PAGE, Coomassie, densitometry; self-association

human recoverin mutant F172A (natural protein, UniProt P35243 1-200, looked up, myristoylated (fraction of non-myristoylated forms did not exceed 16%), recoverin, human, UniProt P35243, C-terminal 'black' cluster mutant; Parent construct as m1; source: E. coli, expressed and purified similarly to the rWT protein (phenyl-Sepharose, Toyopearl SuperQ-650M)) MGNSKSGALSKEILEELQLNTKFSEEELCSWYQSFLKDCPTGRITQQQFQSIYAKFFPDTDPKAYAQHVFRSFDSNLDGTLDFKEYVIALHMTTAGKTNQKLEWAFSLYDVDGNGTISKNEVLEIVMAIFKMITPEDVKLLPDDENTPEKRAEKIWKYFGKNDDDKLTEKEAIEGTLANKEILRLIQFEPQKVKEKMKNA :: 36.6%

Kindly consider the entry below.
**Query** // returns reported Dimer 50 kDa, % for input human recoverin mutant W156A (natural protein, UniProt P35243 1-200, looked up, myristoylated (fraction of non-myristoylated forms did not exceed 16%), recoverin, human, UniProt P35243, C-terminal 'gray' cluster mutant; Parent construct as m1; source: E. coli, expressed and purified similarly to the rWT protein (phenyl-Sepharose, Toyopearl SuperQ-650M)) MGNSKSGALSKEILEELQLNTKFSEEELCSWYQSFLKDCPTGRITQQQFQSIYAKFFPDTDPKAYAQHVFRSFDSNLDGTLDFKEYVIALHMTTAGKTNQKLEWAFSLYDVDGNGTISKNEVLEIVMAIFKMITPEDVKLLPDDENTPEKRAEKIAKYFGKNDDDKLTEKEFIEGTLANKEILRLIQFEPQKVKEKMKNA
**Result** 36.8%
